The values you see were collected from PubChem BioAssay (Tox21).

biological target: Cytochrome P450 2C9 (Homo sapiens); experiment: Cytochrome P450 Family 2 Subfamily C Member 9 (CYP2C9) small molecule antagonists: luciferase reporter qHTS assay (AID 1671198); conditions: P450-Glo CYP2C9 enzyme assay, luciferin luminescence; series mostly up to 115 µM; note: nearly all actives have a fitted effect of over 50% in size
Inconclusive results are not listed. Calls of active or inactive are those of the source. Calls come from the whole dose curve; as a rule, active = well fitted inhibition curve with a large enough effect in the repeat runs; inconclusive = weak or mixed curves; inactive = no such curve, though single readings can be large or run the other way.
Outcomes: active, inactive

{"compound": "C#C[C@]1(O)CC[C@H]2[C@@H]3CCC4=CC(=O)CCC4=C3C=C[C@@]21CC", "labelClass": "active"}
{"compound": "CC(CC(C(N)=O)(c1ccccc1)c1ccccc1)N(C)C (stereo unspecified)", "labelClass": "inactive"}
{"compound": "COc1cc(CC(C)N)c(OC)cc1Br (stereo unspecified)", "labelClass": "inactive"}
{"compound": "NP(N)(=O)NC(=O)c1ccc(F)cc1", "labelClass": "inactive"}
{"compound": "O=C(O)c1cc(I)cc(I)c1I", "labelClass": "active"}
{"compound": "C[C@]12CC[C@H]3[C@@H](CCC4=CC(=O)CC[C@@H]43)[C@@H]1CC[C@@H]2OC(=O)CCc1ccccc1", "labelClass": "active"}
{"compound": "CC(Oc1cc(Cl)c(Cl)cc1Cl)C(=O)O (stereo unspecified)", "labelClass": "active"}
{"compound": "CCOP(=O)(SC(C)CC)N1CCSC1=O (stereo unspecified)", "labelClass": "active"}
{"compound": "C[N+]1(CCF)[C@@H]2CC[C@H]1CC(OC(=O)C(O)(c1ccccc1)c1ccccc1)C2 (stereo partly specified)", "labelClass": "inactive"}
{"compound": "Oc1cccc(Cl)c1", "labelClass": "inactive"}
{"compound": "C=C(C)C(=O)OCCCCOC(=O)C(=C)C", "labelClass": "active"}
{"compound": "CC(C)(C#N)C(C)(C)C#N", "labelClass": "inactive"}
{"compound": "CC(C)(c1ccccc1)c1cc(-n2nc3ccccc3n2)c(O)c(C(C)(C)c2ccccc2)c1", "labelClass": "inactive"}
{"compound": "C=CCOC(=O)C(C)(C)OC(=O)c1cc(-n2c(=O)cc(C(F)(F)F)n(C)c2=O)ccc1Cl", "labelClass": "active"}
{"compound": "O=S(=O)(Cl)Cl", "labelClass": "inactive"}
{"compound": "Nc1ccccc1C(=O)OCC(O)CO (stereo unspecified)", "labelClass": "inactive"}

====

experiment: qHTS assay to identify small molecule agonists of H2AX (AID 1224845); details: CHO-K1 phospho-H2AX Ser139 HTRF, 3 h; series mostly up to 154 µM
Inconclusive results are not listed. Active and inactive are the calls of the source. The call rests on the fitted dose curve; in most records, active means well fitted activation curve with a large enough effect in the signal ratio in the repeat runs (not every such curve was filed as active); inconclusive means weak or mixed curves; inactive means flat fitted curve, though single readings scatter; the % refers to the signal ratio.
Outcomes: TRUE (active), FALSE (inactive)

{"compound": "O=P(OCC(Br)CBr)(OCC(Br)CBr)OCC(Br)CBr (configuration not stated)", "labelClass": "FALSE"}
{"compound": "CC(C)c1ccc(NC(=O)N(C)C)cc1", "labelClass": "FALSE"}
{"compound": "COc1ccc(C(O)(c2cncnc2)C2CC2)cc1 (configuration not stated)", "labelClass": "FALSE"}
{"compound": "c1ccc2c(c1)-c1cccc3cccc-2c13", "labelClass": "FALSE"}
{"compound": "C=CC(=O)NC(C)(C)CC(C)=O", "labelClass": "FALSE"}
{"compound": "CCC1CCC(=O)O1 (configuration not stated)", "labelClass": "FALSE"}
{"compound": "CC(C)(C)CC(C)(C)c1ccc(O)cc1", "labelClass": "TRUE"}
